Measured IC50 by item
target: Bcl-2 protein (histag-Bcl-2, UniProtKB P10415) (Homo sapiens (Human), UniProt P10415); experiment: Inhibition of Bcl-2 by the fluorescence polarisation technique; assay type: binding; conditions: fluorescence polarisation test; incubation for 2 hours; read-out: IC50 (nM) Bcl-2 FP
Sequence (P10415 whole entry): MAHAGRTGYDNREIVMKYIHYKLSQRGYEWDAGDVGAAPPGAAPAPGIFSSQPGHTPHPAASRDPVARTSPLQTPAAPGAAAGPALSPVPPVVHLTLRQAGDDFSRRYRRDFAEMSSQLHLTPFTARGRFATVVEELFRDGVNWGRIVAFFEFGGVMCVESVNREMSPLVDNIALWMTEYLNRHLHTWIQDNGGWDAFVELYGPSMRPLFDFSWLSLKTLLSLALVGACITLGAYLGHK
Where a name gives a salt, the structure may show the parent alone.

{"columns": ["MOLECULE", "READOUT_UNIT", "IC50"],
 "data": [
  ["Cc1c(C(=O)N(C)c2ccc(O)cc2)cc(-c2cc3c(cc2C(=O)N2Cc4ccccc4C[C@H]2CN2CCOCC2)CN(C(=O)Oc2ccc(C(=O)O)cc2)CC3)n1C", "nM", 4.9],
  ["Cc1c(C(=O)N(C)c2ccc(O)cc2)cc(-c2cc3c(cc2C(=O)N2Cc4ccccc4C[C@H]2CN2CCOCC2)CN(C(=O)Oc2ccc(Cl)cc2)CC3)n1C", "nM", 6.6],
  ["CN(C(=O)c1cc(-c2cc3c(cc2C(=O)N2Cc4ccccc4C[C@H]2CN2CCOCC2)CN(C(=O)Cc2ccccc2)C3)n2c1CCCC2)c1ccc(O)cc1 [Example 8, hydrochloride salt]", "nM", 7.3],
  ["C[C@@H]1Cc2ccccc2CN1C(=O)c1cc2c(cc1-c1cc(C(=O)N(c3ccc(O)cc3)c3cnc4c(ccn4C)c3)c3n1CCCC3)CN(C(=O)COc1ccccc1)C2", "nM", 4.6],
  ["CN(C(=O)c1cc(-c2cc3c(cc2C(=O)N2Cc4ccccc4C[C@H]2CN2CCOCC2)CN(S(=O)(=O)CCc2ccccc2)C3)n2c1CCCC2)c1ccc(O)cc1 [Example 21, hydrochloride]", "nM", 14]
]}

====

molecular target: Bcl-2 protein (histag-Bcl-2, UniProtKB P10415) (Homo sapiens (Human), UniProt P10415); experiment: Inhibition of Bcl-2 by the fluorescence polarisation technique; type: binding

{"columns": ["SMILES_RECORD", "IC50 (nM)"],
 "data": [
  ["Cc1c(C(=O)N(C)c2ccc(O)cc2)cc(-c2cc3c(cc2C(=O)N2Cc4ccccc4C[C@H]2CN2CCOCC2)CN(C(=O)Oc2cnc4[nH]ccc4c2)CC3)n1C", 4.4]
]}

====

target: Bcl-2 protein (histag-Bcl-2, UniProtKB P10415) (Homo sapiens (Human), UniProt P10415); experiment: Inhibition of Bcl-2 by the fluorescence polarisation technique; type: binding; conditions: fluorescence polarisation test; incubation for 2 hours; read-out: IC50 (nM) Bcl-2 FP
Counter-ions that a name gives are not always drawn.
OBSERVABLE: log10 of IC50 (log10 of the value in nM)

{"columns": ["COMPOUND", "log10 of IC50"],
 "data": [
  ["CN(C(=O)c1cc(-c2cc3c(cc2C(=O)N2Cc4ccccc4C[C@H]2CN2CCOCC2)CN(C(=O)Oc2ccc(C(N)=O)cc2)CC3)n2c1CCCC2)c1ccc(O)cc1", 0.77],
  ["CCCCN(CCCC)C(=O)c1cc(-c2cc3c(cc2C(=O)N2Cc4ccccc4C[C@H]2C)CN(C(=O)Cc2ccccc2)CC3)n(C)c1C", 1.15],
  ["C[C@@H]1Cc2ccccc2CN1C(=O)c1cc2c(cc1-c1cc(C(=O)N(C)c3ccc(O)cc3)c3n1CCCC3)CCN(C(=O)Cc1cccc(N3CCN(C)CC3)c1)C2", 0.52],
  ["Cc1c(C(=O)N(C)c2ccccc2)cc(-c2cc3c(cc2C(=O)N2Cc4ccccc4C[C@H]2C)CNCC3)n1C [Example 119, hydrochloride]", 2.79],
  ["CN(C)C(=O)c1ccc(OC(=O)N2CCc3cc(-c4cc(C(=O)N(C)c5ccc(O)cc5)c5n4CCCC5)c(C(=O)N4Cc5ccccc5C[C@H]4CN4CCOCC4)cc3C2)cc1", 0.74],
  ["CC(Cc1ccccc1)C(=O)N1Cc2cc(C(=O)N3Cc4ccccc4C[C@H]3C)c(-c3cc(C(=O)N(C)c4ccc(O)cc4)c4n3CCCC4)cc2C1 (stereo partly drawn)", 1.11]
]}

====

target: Bcl-2 protein (histag-Bcl-2, UniProtKB P10415) (Homo sapiens (Human), UniProt P10415); test: Inhibition of Bcl-2 by the fluorescence polarisation technique; format: binding; conditions: fluorescence polarisation test; incubation for 2 hours; read-out: IC50 (nM) Bcl-2 FP
Rule for this label: Fulfilled means IC50 is less than 20 nM; Not fulfilled means IC50 is at least 20 nM.

{"columns": ["SMILES_RECORD", "ASSIGNED_CLASS"],
 "data": [
  ["C[C@@H]1Cc2ccccc2CN1C(=O)c1cc2c(cc1-c1cc(C(=O)N(C)c3ccc(O)cc3)c3n1CCCC3)CN(C(=O)NC(C)(C)C)C2", "Not fulfilled"],
  ["C[C@@H]1Cc2ccccc2CN1C(=O)c1cc2c(cc1-c1cc(C(=O)N(C)c3ccc(O)cc3)c3n1CCCC3)CCN(C(=O)Nc1ccccc1)C2", "Fulfilled"],
  ["C[C@@H]1Cc2ccccc2CN1C(=O)c1cc2c(cc1-c1cc(C(=O)N(C)c3ccc(O)cc3)c3n1CCCC3)CN(Cc1ccccc1)C2", "Not fulfilled"],
  ["Cc1c(C(=O)N(C)c2ccccc2)cc(-c2cc3c(cc2C(=O)N2Cc4ccccc4C[C@H]2C)CN(C(=O)Oc2ccc4[nH]ccc4c2)CC3)n1C", "Fulfilled"],
  ["C[C@@H]1Cc2ccccc2CN1C(=O)c1cc2c(cc1-c1cc(C(=O)N(C)c3ccc(O)cc3)c3n1CCCC3)CN(C(=O)OCc1cnc3[nH]ccc3c1)C2", "Not fulfilled"],
  ["C#Cc1ccc(OC(=O)N2CCc3cc(-c4cc(C(=O)N(C)c5ccc(O)cc5)c(C)n4C)c(C(=O)N4Cc5ccccc5C[C@H]4CN4CCOCC4)cc3C2)cc1", "Fulfilled"],
  ["CCC(=O)N1CCc2cc(-c3cc(C(=O)N(C)c4ccc(O)cc4)c4n3CCCC4)c(C(=O)N3Cc4ccccc4C[C@H]3C)cc2C1", "Fulfilled"],
  ["Cc1c(C(=O)N(C)c2ccccc2)cc(-c2cc3c(cc2C(=O)N2Cc4ccccc4C[C@H]2C)CN(C(=O)Oc2ccccc2)CC3)n1C", "Fulfilled"],
  ["C[C@@H]1Cc2ccccc2CN1C(=O)c1cc2c(cc1-c1cc(C(=O)N(C)c3ccc(O)cc3)c3n1CCCC3)CN(CCCc1ccccc1)C2", "Fulfilled"],
  ["C[C@@H]1Cc2ccccc2CN1C(=O)c1cc2c(cc1-c1cc(C(=O)N(C)c3ccc(O)cc3)c3n1CCCC3)CCN(C(=O)c1ccccc1)C2", "Fulfilled"],
  ["Cc1c(C(=O)N(C)c2ccc(O)cc2)cc(-c2cc3c(cc2C(=O)N2Cc4ccccc4C[C@H]2C)CN(C(=O)COc2ccccc2)C3)n1C", "Fulfilled"]
]}

====

tested on: RS4; 11 leukaemia cell line; experiment: In vitro cytotoxicity, Microculture Tetrazolium Assay (MTT); format: cell-based; conditions: Homo sapiens, 11 cells exposed for 48 hours
Counter-ions that a name gives are not always drawn.
Criterion: IC50 strictly under 20 nM. Met: 1 (yes). Not met: 0 (no).

{"columns": ["COMPOUND", "ASSIGNED_CLASS"],
 "data": [
  ["C[C@@H]1Cc2ccccc2CN1C(=O)c1cc2c(cc1-c1cc(C(=O)N(C)c3ccc(O)cc3)c3n1CCCC3)CCN(C(=O)Nc1ccccc1)C2 [Example 71]", "1 (yes)"],
  ["Cc1ccc(OC(=O)N2CCc3cc(-c4cc(C(=O)N(C)c5ccccc5)c(C)n4C)c(C(=O)N4Cc5ccccc5C[C@H]4C)cc3C2)cc1 [Example 785]", "1 (yes)"],
  ["Cc1c(C(=O)N(C)c2ccc(O)cc2)cc(-c2cc3c(cc2C(=O)N2Cc4ccccc4C[C@H]2CN2CCOCC2)CN(C(=O)NC2CCCCC2)CC3)n1C [Example 793]", "0 (no)"],
  ["Cc1c(C(=O)N(C)c2ccccc2)cc(-c2cc3c(cc2C(=O)N2Cc4ccccc4C[C@H]2CN2CCOCC2)CN(C(=O)Oc2cnc4c(ccn4C)c2)CC3)n1C [Example 634]", "0 (no)"],
  ["Cc1c(C(=O)N(C)c2ccc(O)cc2)cc(-c2cc3c(cc2C(=O)N2Cc4ccccc4C[C@H]2C)CN(C(=O)Cc2ccc(F)cc2)C3)n1C [Example 102]", "0 (no)"],
  ["Cc1c(C(=O)N(C)c2ccc(O)cc2)cc(-c2cc3c(cc2C(=O)N2Cc4ccccc4C[C@H]2C)CN(C(=O)C(C)Oc2ccccc2)C3)n1C (some centres unmarked) [Example 104]", "0 (no)"],
  ["C[C@@H]1Cc2ccccc2CN1C(=O)c1cc2c(cc1-c1cc(C(=O)N(C)c3ccc(O)cc3)c3n1CCCC3)CCN(S(=O)(=O)c1ccccc1)C2 [Example 39]", "0 (no)"],
  ["C[C@@H]1Cc2ccccc2CN1C(=O)c1cc2c(cc1-c1cc(C(=O)N(C)c3ccc(O)cc3)c3n1CCCC3)CN(Cc1ccccc1)C2 [Example 33]", "0 (no)"],
  ["Cc1c(C(=O)N(C)c2ccccc2)cc(-c2cc3c(cc2C(=O)N2Cc4ccccc4C[C@H]2C)CN(C(=O)Oc2cccc(N(C)CCN(C)C)c2)CC3)n1C [Example 446]", "1 (yes)"],
  ["Cc1c(C(=O)N(C)c2ccc(O)cc2)cc(-c2cc3c(cc2C(=O)N2Cc4ccccc4C[C@H]2C)CN(C(=O)Cc2ccccc2)C3)n1C [Example 80]", "0 (no)"],
  ["C[C@@H]1Cc2ccccc2CN1C(=O)c1cc2c(cc1-c1cc(C(=O)N(C)c3ccc(O)cc3)c3n1CCCC3)CCN(C(=O)N1CC(c3ccccc3)C1)C2 [Example 84]", "0 (no)"],
  ["C[C@@H]1Cc2ccccc2CN1C(=O)c1cc2c(cc1-c1cc(C(=O)N(C)c3ccc(O)cc3)c3n1CCCC3)CCN(C(=O)C1(c3ccccc3)CC1)C2 [Example 109]", "0 (no)"],
  ["Cc1c(C(=O)N(C)c2ccccc2)cc(-c2cc3c(cc2C(=O)N2Cc4ccccc4C[C@H]2C)CN(C(=O)Cc2ccc(C#N)cc2)CC3)n1C [Example 150]", "1 (yes)"],
  ["CN(C(=O)c1cc(-c2cc3c(cc2C(=O)N2Cc4ccccc4C[C@H]2CN2CCOCC2)CN(S(=O)(=O)c2ccc4ccccc4c2)CC3)n2c1CCCC2)c1ccc(O)cc1 [Example 5]", "0 (no)"],
  ["C[C@@H]1Cc2ccccc2CN1C(=O)c1cc2c(cc1-c1cc(C(=O)N(C)c3ccc(O)cc3)c3n1CCCC3)CCN(C(=O)Cc1ccc(C#N)cc1)C2 [Example 53]", "1 (yes)"],
  ["CC(=O)N1Cc2cc(C(=O)N3Cc4ccccc4C[C@H]3C)c(-c3cc(C(=O)N(C)c4ccc(O)cc4)c(C)n3C)cc2C1 [Example 112]", "0 (no)"],
  ["CN(C(=O)c1cc(-c2cc3c(cc2C(=O)N2Cc4ccccc4C[C@H]2CN2CCOCC2)CN(S(=O)(=O)CCc2ccccc2)C3)n2c1CCCC2)c1ccc(O)cc1 [Example 21, hydrochloride]", "0 (no)"],
  ["C[C@@H]1Cc2ccccc2CN1C(=O)c1cc2c(cc1-c1cc(C(=O)N(C)c3ccc(O)cc3)c3n1CCCC3)CN(CC(=O)Nc1ccccc1)C2 [Example 92]", "0 (no)"],
  ["C[C@@H]1Cc2ccccc2CN1C(=O)c1cc2c(cc1-c1cc(C(=O)N(C)c3ccc(O)cc3)c3n1CCCC3)CCN(C(=O)N(C)c1ccccc1)C2 [Example 74]", "0 (no)"],
  ["Cc1c(C(=O)N(C)c2ccccc2)cc(-c2cc3c(cc2C(=O)N2Cc4ccccc4C[C@H]2C)CN(C(=O)Oc2ccc(CCC(=O)N(C)C)cc2)CC3)n1C [Example 788]", "1 (yes)"],
  ["Cc1c(C(=O)N(C)c2ccc(O)cc2)cc(-c2cc3c(cc2C(=O)N2Cc4ccccc4C[C@H]2C)CN(C(=O)[C@H](O)c2ccccc2)C3)n1C [Example 175]", "0 (no)"],
  ["Cc1c(C(=O)N(C)c2ccc(O)cc2)cc(-c2cc3c(cc2C(=O)N2Cc4ccccc4C[C@H]2CN2CCOCC2)CN(C(=O)Oc2ccc(C#N)cc2)CC3)n1C [Example 146]", "1 (yes)"],
  ["CCCCN(CCCC)C(=O)c1cc(-c2cc3c(cc2C(=O)N2Cc4ccccc4C[C@H]2CN2CCOCC2)CN(C(=O)Oc2ccccc2)CC3)n(C)c1C [Example 197]", "0 (no)"]
]}
